target.under.test: human Kv3.1 channels (hKv3.1) (Homo sapiens)
Construct: expressed in transfected cells
test.summary: Kv3.1 channel modulation, IonWorks Quattro planar array electrophysiology
Type: cell-based
condition.notes: HEK-293 cells expressing human Kv3.1; currents at −15 mV voltage step; normalised to 50 microM reference compound and vehicle; read-out: Kv3.1 pEC50 (converted)
Decide using EC50 alone. Strictly below 1000 nM: Y. Equal to or above 1000 nM: N.

{"columns": ["compound", "assigned.label"],
 "data": [
  ["CC[C@H]1NC(=O)N(c2ccc(Oc3ccc(C)c4c3C3(CC3)CO4)nc2OC)C1=O [Reference Example 11, reference compound]", "N"],
  ["CC[C@H]1NC(=O)N(c2ccc(Oc3ccc(C#N)c(OC(F)(F)F)c3)nc2OC)C1=O [Reference Example 18, reference compound]", "N"],
  ["COc1nc(Oc2cccc3c2C2(CC2)CO3)ccc1N1C(=O)NC(C)(C)C1=O [Reference Example 5, reference compound]", "N"],
  ["CC[C@H]1NC(=O)N(c2ccc(Oc3ccc(C)c4c3C3(CC3)CO4)nc2C)C1=O [Reference Example 12, reference compound]", "Y"]
]}

Switching to the query record.
Determine if CC[C@H]1NC(=O)N(c2ccc(Oc3cccc4c3C3(CC3)CO4)nc2OC)C1=O [Reference Example 14, reference compound] shows EC50 strictly lower than 1000 nM.
N

###

We begin with a simple list: items and their reported pIC50.
target.under.test: CYP2C9 (Homo sapiens, UniProt P11712)
Sequence (P11712 whole entry): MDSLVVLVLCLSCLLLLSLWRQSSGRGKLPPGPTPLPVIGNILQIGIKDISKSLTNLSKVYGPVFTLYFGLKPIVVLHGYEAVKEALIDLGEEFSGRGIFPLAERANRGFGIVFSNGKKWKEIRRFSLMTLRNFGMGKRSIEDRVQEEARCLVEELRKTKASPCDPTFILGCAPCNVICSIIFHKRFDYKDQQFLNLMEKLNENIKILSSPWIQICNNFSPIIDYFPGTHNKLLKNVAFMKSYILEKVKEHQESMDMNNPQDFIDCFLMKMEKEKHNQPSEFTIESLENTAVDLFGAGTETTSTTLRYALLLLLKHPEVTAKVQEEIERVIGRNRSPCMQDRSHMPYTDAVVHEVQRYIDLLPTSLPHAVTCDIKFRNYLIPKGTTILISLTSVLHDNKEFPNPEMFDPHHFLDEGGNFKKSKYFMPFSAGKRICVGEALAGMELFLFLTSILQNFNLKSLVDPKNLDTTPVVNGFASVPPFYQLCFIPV
test.summary: CYP450 inhibition, pro-fluorescent probe substrate (2C9/FCA)
condition.notes: recombinant human CYP450, substrate FCA; top concentration 5.00E-05
Conceptually, pIC50 converts a concentration in mol/L into minus its log10.

{"columns": ["molecule", "pIC50"],
 "data": [
  ["Cc1ccc(Oc2ccc(N3C(=O)NC(C)(C)C3=O)c(N)n2)c2c1OCC21CC1", 5.07]
]}

Indicate the recorded pIC50 value for this molecule: COc1nc(Oc2ccc(C)c3c2C2(CC2)CO3)ccc1N1C(=O)NC(C)(C)C1=O [Reference Example 2, reference compound]
7.00

###

target.under.test: CYP2D6 (Homo sapiens)
Sequence (P10635 whole entry): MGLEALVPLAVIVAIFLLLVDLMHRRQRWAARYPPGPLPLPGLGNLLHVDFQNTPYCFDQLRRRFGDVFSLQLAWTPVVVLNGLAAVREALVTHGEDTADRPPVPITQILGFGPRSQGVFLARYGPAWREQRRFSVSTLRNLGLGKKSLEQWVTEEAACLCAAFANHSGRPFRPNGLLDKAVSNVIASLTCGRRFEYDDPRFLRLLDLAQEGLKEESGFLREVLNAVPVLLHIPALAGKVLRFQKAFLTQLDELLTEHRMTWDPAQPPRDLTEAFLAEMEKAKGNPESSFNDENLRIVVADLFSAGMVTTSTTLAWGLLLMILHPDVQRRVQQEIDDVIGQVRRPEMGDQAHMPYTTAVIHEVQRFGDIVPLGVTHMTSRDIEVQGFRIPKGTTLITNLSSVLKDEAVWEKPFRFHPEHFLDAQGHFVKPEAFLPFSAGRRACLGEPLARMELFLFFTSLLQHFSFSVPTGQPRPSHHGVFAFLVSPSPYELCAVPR
test.summary: CYP450 inhibition, pro-fluorescent probe substrate (2D6/MMMC)
condition.notes: recombinant human CYP450, substrate MMMC; top concentration 5.00E-05
experimental.endpoint: IC50

Reference set (2 entries):
{"columns": ["compound", "IC50"],
 "data": [
  ["COc1nc(Oc2ccc(C)c3c2C2(CC2)CO3)ccc1N1C(=O)NC(C)(C)C1=O [Reference Example 2, reference compound]", "> 50 µM"],
  ["Cc1ccc(Oc2ccc(N3C(=O)NC(C)(C)C3=O)c(N)n2)c2c1OCC21CC1", "> 50 µM"]
]}

Switching to the query record.
Give the measured IC50 for CC1(C)NC(=O)N(c2ccc(Oc3cccc(OC(F)(F)F)c3)nc2N)C1=O
> 50 µM

###

Listing of entries alongside the reported IC50.
target.under.test: CYP2C19 (Homo sapiens)
Sequence (P33261 whole entry): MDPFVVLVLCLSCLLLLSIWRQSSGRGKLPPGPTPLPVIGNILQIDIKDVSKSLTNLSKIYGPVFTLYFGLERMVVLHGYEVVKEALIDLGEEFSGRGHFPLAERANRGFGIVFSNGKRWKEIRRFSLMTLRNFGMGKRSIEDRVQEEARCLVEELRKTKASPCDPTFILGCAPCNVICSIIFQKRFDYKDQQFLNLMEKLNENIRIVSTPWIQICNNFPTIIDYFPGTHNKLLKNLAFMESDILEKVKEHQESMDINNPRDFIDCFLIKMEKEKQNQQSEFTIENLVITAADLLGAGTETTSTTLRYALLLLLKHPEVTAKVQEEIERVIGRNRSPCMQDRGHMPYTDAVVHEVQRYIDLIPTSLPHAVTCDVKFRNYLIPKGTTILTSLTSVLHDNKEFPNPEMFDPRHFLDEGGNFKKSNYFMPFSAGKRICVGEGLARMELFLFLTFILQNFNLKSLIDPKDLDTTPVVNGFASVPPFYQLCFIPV
test.summary: CYP450 inhibition, pro-fluorescent probe substrate (2C19/BMC)
condition.notes: recombinant human CYP450, substrate BMC; top concentration 5.00E-05
Kindly answer with a numeric value in µM, unit omitted.

{"columns": ["compound", "target.under.test", "units.label", "IC50"],
 "data": [
  ["COc1nc(Oc2ccc(C)c3c2C2(CC2)CO3)ccc1N1C(=O)NC(C)(C)C1=O [Reference Example 2, reference compound]", "CYP2C19 (Homo sapiens)", "µM", 1.1]
]}

Specify reported IC50 for the compound shown: CC1(C)NC(=O)N(c2ccc(Oc3cccc(OC(F)(F)F)c3)nc2N)C1=O
21

###

Each record here notes measured log10(EC50).
target.under.test: human Kv3.1 channels (hKv3.1) (Homo sapiens, UniProt P48547)
Construct: expressed in transfected cells
test.summary: Kv3.1 channel modulation, IonWorks Quattro planar array electrophysiology
Assay type: cell-based
condition.notes: HEK-293 cells expressing human Kv3.1; currents at −15 mV voltage step; normalised to 50 microM reference compound and vehicle; read-out: Kv3.1 pEC50 (converted)
Plainly stated, the numbers are log10 of EC50 given in nM.

{"columns": ["molecule", "target.under.test", "log10(EC50)"],
 "data": [
  ["CC1(C)NC(=O)N(c2ccc(Oc3ccc(C#N)c(OC(F)(F)F)c3)nc2N)C1=O", "human Kv3.1 channels (hKv3.1) (Homo sapiens, UniProt P48547)", 3.40],
  ["Cc1ccc(Oc2ccc(N3C(=O)NC(C)(C)C3=O)c(N)n2)cc1OC(F)(F)F", "human Kv3.1 channels (hKv3.1) (Homo sapiens, UniProt P48547)", 3.40],
  ["CC[C@H]1NC(=O)N(c2ccc(Oc3ccc(C)c(OC(F)(F)F)c3)nc2C)C1=O [Reference Example 17, reference compound]", "human Kv3.1 channels (hKv3.1) (Homo sapiens, UniProt P48547)", 3.70],
  ["CC1(C)NC(=O)N(c2ccc(Oc3cccc4c3C3(CC3)CO4)nc2)C1=O [Reference Example 4, reference compound]", "human Kv3.1 channels (hKv3.1) (Homo sapiens, UniProt P48547)", 4.50],
  ["CC1(C)NC(=O)N(c2ccc(Oc3cccc(OC(F)(F)F)c3)nc2N)C1=O", "human Kv3.1 channels (hKv3.1) (Homo sapiens, UniProt P48547)", 3.40],
  ["CC[C@H]1NC(=O)N(c2ccc(Oc3ccc(C)c(OC(F)(F)F)c3)nc2OC)C1=O [Reference Example 16, reference compound]", "human Kv3.1 channels (hKv3.1) (Homo sapiens, UniProt P48547)", 3.90]
]}

Tell me log10(EC50) of CC[C@H]1NC(=O)N(c2ccc(Oc3ccc(C#N)c(C(C)C)c3)nc2)C1=O [Reference Example 19, reference compound] when tested on human Kv3.1 channels (hKv3.1) (Homo sapiens, UniProt P48547).
3.10

Quote log10(EC50) with test system human Kv3.1 channels (hKv3.1) (Homo sapiens, UniProt P48547) for Cc1ccc(Oc2ccc(N3C(=O)NC(C)(C)C3=O)c(N)n2)c2c1OCC21CC1
2.40

###

Each entry below lists one item and its recorded EC50 value.
target.under.test: human Kv3.1 channels (hKv3.1) (Homo sapiens)
Construct: expressed in transfected cells
Sequence (P48547 1-511): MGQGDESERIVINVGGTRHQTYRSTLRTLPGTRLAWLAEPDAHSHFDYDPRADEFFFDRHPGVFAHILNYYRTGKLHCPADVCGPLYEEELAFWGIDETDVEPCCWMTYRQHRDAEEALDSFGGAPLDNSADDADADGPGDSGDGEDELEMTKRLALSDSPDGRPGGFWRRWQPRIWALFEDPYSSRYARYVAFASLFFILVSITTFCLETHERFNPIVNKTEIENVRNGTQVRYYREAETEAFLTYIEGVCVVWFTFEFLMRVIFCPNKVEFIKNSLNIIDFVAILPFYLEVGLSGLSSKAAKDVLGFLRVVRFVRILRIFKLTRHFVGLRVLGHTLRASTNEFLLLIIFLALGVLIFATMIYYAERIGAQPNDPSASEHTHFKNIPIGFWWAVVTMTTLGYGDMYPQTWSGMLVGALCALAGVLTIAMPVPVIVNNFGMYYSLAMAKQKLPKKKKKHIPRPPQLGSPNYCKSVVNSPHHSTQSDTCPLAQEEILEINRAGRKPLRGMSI
test.summary: Kv3.1 channel modulation, IonWorks Quattro planar array electrophysiology
Format: cell-based
condition.notes: HEK-293 cells expressing human Kv3.1; currents at −15 mV voltage step; normalised to 50 microM reference compound and vehicle; read-out: Kv3.1 pEC50 (converted)
Please state the value followed by its unit.

Reference set, count: 8
{"columns": ["compound", "target.under.test", "EC50"],
 "data": [
  ["CC[C@H]1NC(=O)N(c2ccc(Oc3ccc(C)c(OC(F)(F)F)c3)nc2)C1=O [Reference Example 15, reference compound]", "human Kv3.1 channels (hKv3.1) (Homo sapiens)", "2510 nM"],
  ["Cc1ccc(Oc2ccc(N3C(=O)NC(C)(C)C3=O)c(C)n2)c2c1OCC21CC1 [Reference Example 3, reference compound]", "human Kv3.1 channels (hKv3.1) (Homo sapiens)", "1580 nM"],
  ["CC[C@H]1NC(=O)N(c2ccc(Oc3ccc(C#N)c(OC(F)(F)F)c3)nc2N)C1=O [Example 11]", "human Kv3.1 channels (hKv3.1) (Homo sapiens)", "3160 nM"],
  ["Cc1ccc(Oc2ccc(N3C(=O)NC(C)(C)C3=O)c(C)n2)cc1OC(F)(F)F [Reference Example 8, reference compound]", "human Kv3.1 channels (hKv3.1) (Homo sapiens)", "6310 nM"],
  ["CC[C@H]1NC(=O)N(c2ccc(Oc3ccc(C#N)c(C(C)C)c3)nc2N)C1=O [Example 13]", "human Kv3.1 channels (hKv3.1) (Homo sapiens)", "3160 nM"],
  ["Cc1ccc(Oc2ccc(N3C(=O)NC(C)(C)C3=O)c(N)n2)c2c1OCC2(C)C [Example 14]", "human Kv3.1 channels (hKv3.1) (Homo sapiens)", "501 nM"],
  ["CC[C@H]1NC(=O)N(c2ccc(Oc3cccc4c3C3(CC3)CO4)nc2N)C1=O [Example 4]", "human Kv3.1 channels (hKv3.1) (Homo sapiens)", "1000 nM"],
  ["CC(C)c1cc(Oc2ccc(N3C(=O)NC(C)(C)C3=O)c(N)n2)ccc1C#N [Example 12]", "human Kv3.1 channels (hKv3.1) (Homo sapiens)", "2000 nM"]
]}

// moving on: another record for EC50
Fill in EC50 for COc1nc(Oc2ccc(C#N)c(OC(F)(F)F)c2)ccc1N1C(=O)NC(C)(C)C1=O [Reference Example 9, reference compound] tested with human Kv3.1 channels (hKv3.1) (Homo sapiens).
12600 nM
